Recorded PDI values for a group of compounds are listed next.
assay: Particle size and polydispersity index (PDI) of lipid nanoparticles by dynamic light scattering; type: physicochemical; details: LNP formulation of the cationic lipid, 25° C.

>  <COMPOUND>
CCCCCCCCCCCOC(=O)CCCN(CCO)CCCN(CCO)CCCCCC(=O)OC(CCCCCCCC)CCCCCCCC

>  <UNIT DESCRIPTOR>
%

>  <PDI>
16.1

$$$$
>  <COMPOUND>
CCCCCCCCCCOC(=O)CCCCCN(CCO)CCCN(CCO)CCCCCC(=O)OCC(CCCCCCCC)CCCCCCCC

>  <UNIT DESCRIPTOR>
%

>  <PDI>
19.7

$$$$
>  <COMPOUND>
CCCCCCCCCCOC(=O)CCCCCN(CCO)CCCN(CCO)CCCCCC(=O)OCCC(CCCCCC)CCCCCC

>  <UNIT DESCRIPTOR>
%

>  <PDI>
17.7

$$$$
>  <COMPOUND>
CCCCCCCCC(CCCCCCCC)COC(=O)CCCCCN(CCCO)CCCCN(CCCO)CCCCCC(=O)OCC(CCCCCCCC)CCCCCCCC

>  <UNIT DESCRIPTOR>
%

>  <PDI>
16.1

$$$$
>  <COMPOUND>
CCCCCCCCC(CCCCCCCC)OC(=O)CCCCCCCN(CCO)CCN(CCO)CCCCCCCC(=O)OC(CCCCCCCC)CCCCCCCC

>  <UNIT DESCRIPTOR>
%

>  <PDI>
16.5

$$$$
>  <COMPOUND>
CCCCCCCCCCCOC(=O)CCCN(CCO)CCN(CCO)CCCCCC(=O)OC(CCCCCCCC)CCCCCCCC

>  <UNIT DESCRIPTOR>
%

>  <PDI>
16.6

$$$$
>  <COMPOUND>
CCCCCCCCC(CCCCCCCC)C(=O)OCCCCCCN(CCO)CCN(CCO)CCCCCCOC(=O)C(CCCCCCCC)CCCCCCCC

>  <UNIT DESCRIPTOR>
%

>  <PDI>
17.1

$$$$
>  <COMPOUND>
CCCCCCCCCCOC(=O)CCCN(CCO)CCCCN(CCO)CCCCCC(=O)OC(CCCCCCCC)CCCCCCCC

>  <UNIT DESCRIPTOR>
%

>  <PDI>
17.4

$$$$
>  <COMPOUND>
CCCCCCCCC(CCCCCCCC)COC(=O)CCCCCN(CCCO)CCN(CCCO)CCCCCC(=O)OCC(CCCCCCCC)CCCCCCCC

>  <UNIT DESCRIPTOR>
%

>  <PDI>
13.9

$$$$
>  <COMPOUND>
CCCCCCCCCCOC(=O)CCCN(CCO)CCN(CCO)CCCC(=O)OC(CCCCCCCC)CCCCCCCC

>  <UNIT DESCRIPTOR>
%

>  <PDI>
16.2

$$$$
>  <COMPOUND>
CCCCCCCCCCOC(=O)CCCN(CCO)CCCN(CCO)CCCCCCOC(=O)CC(CCCCCC)CCCCCC

>  <UNIT DESCRIPTOR>
%

>  <PDI>
17.2

$$$$
>  <COMPOUND>
CCCCCCCCCCCCC(O)CN(C)CCCCCC(=O)OCC(CCCCCC)CCCCCCCC (centres unmarked) [HHMA, reference compound]

>  <UNIT DESCRIPTOR>
%

>  <PDI>
16.6

$$$$
>  <COMPOUND>
CCCCCCCCCCOC(=O)CCCN(CCO)CCCCCC(=O)OCC(CCCCCCCC)CCCCCCCC [YK-009, reference compound]

>  <UNIT DESCRIPTOR>
%

>  <PDI>
16.0

$$$$
>  <COMPOUND>
CCCCCCCCCCCOC(=O)CCCCCN(CCO)CCCCCCCC(=O)OC(CCCCCCCC)CCCCCCCC [SM-102, reference compound]

>  <UNIT DESCRIPTOR>
%

>  <PDI>
22.3

$$$$
>  <COMPOUND>
CCCCCCCCC(CCCCCC)C(=O)OCCCCCCN(CCCCO)CCCCCCOC(=O)C(CCCCCC)CCCCCCCC (centres unmarked) [ALC-0315, reference compound]

>  <UNIT DESCRIPTOR>
%

>  <PDI>
18.2

$$$$
>  <COMPOUND>
CCCCCCCCCCOC(=O)CCCCCN(CCO)CCN(CCO)CCCCCC(=O)OCC(CCCCCCCC)CCCCCCCC

>  <UNIT DESCRIPTOR>
%

>  <PDI>
15.5

$$$$
>  <COMPOUND>
CCCCCC(CC)OC(=O)CCCCCCCCN(CCO)CCN(CCO)CCCCCCCCC(=O)OC(CC)CCCCC (centres unmarked)

>  <UNIT DESCRIPTOR>
%

>  <PDI>
4.2

$$$$
>  <COMPOUND>
CCCCCCCCCCCOC(=O)CCCN(CCO)CCCN(CCO)CCCCCC(=O)OCC(CCCCCCCC)CCCCCCCC

>  <UNIT DESCRIPTOR>
%

>  <PDI>
15.6

$$$$
>  <COMPOUND>
CCCCCCCCCCCOC(=O)CCCN(CCO)CCN(CCO)CCCCCC(=O)OCC(CCCCCCCC)CCCCCCCC

>  <UNIT DESCRIPTOR>
%

>  <PDI>
13.7

$$$$
>  <COMPOUND>
CCCCCCCCC(CCCCCCCC)OC(=O)CCCCCN(CCO)CCCCN(CCO)CCCCCC(=O)OC(CCCCCCCC)CCCCCCCC

>  <UNIT DESCRIPTOR>
%

>  <PDI>
14.2

$$$$
>  <COMPOUND>
CCCCCCCCCCCOC(=O)CCCN(CCO)CCN(CCO)CCCCCCOC(=O)CC(CCCCCC)CCCCCC

>  <UNIT DESCRIPTOR>
%

>  <PDI>
15.8

$$$$
>  <COMPOUND>
CCCCCCCCC(CCCCCCCC)OC(=O)CCCCCN(CCO)CCCN(CCO)CCCCCC(=O)OC(CCCCCCCC)CCCCCCCC

>  <UNIT DESCRIPTOR>
%

>  <PDI>
11.2

$$$$
>  <COMPOUND>
CCCCCCCCC(CCCCCCCC)COC(=O)CCCCCN(CCCO)CCCN(CCCO)CCCCCC(=O)OCC(CCCCCCCC)CCCCCCCC

>  <UNIT DESCRIPTOR>
%

>  <PDI>
11.7

$$$$
>  <COMPOUND>
CCCCCCCCCCOC(=O)CCCN(CCO)CCN(CCO)CCCCCC(=O)OC(CCCCCCCC)CCCCCCCC

>  <UNIT DESCRIPTOR>
%

>  <PDI>
4.3

$$$$
>  <COMPOUND>
CCCCCCCCC(CCCCCCCC)OC(=O)CCCCCN(CCO)CCN(CCO)CCCCCC(=O)OC(CCCCCCCC)CCCCCCCC

>  <UNIT DESCRIPTOR>
%

>  <PDI>
17.7

$$$$
>  <COMPOUND>
CCCCCCCCCCOC(=O)CCCCCN(CCO)CCN(CCO)CCCCCC(=O)OCCC(CCCCCC)CCCCCC

>  <UNIT DESCRIPTOR>
%

>  <PDI>
5.2

$$$$
